Target: HIV-1 NL4-3 Env on infected cells (HIV-1 group M subtype B, NL4-3 (pNL4-3 …, strain))
reported endpoint: binding result

c2785 (antibody, V domains shown) VH: QVQLVQSGAEMKKPGSSVKVSCKASGGSFRSFTVNWVRQAPGQGLEWVGRIIAIFGSVDYAQKFQGRVTISADESTSTFYMDIRSLKSEDTAVYYCVRDGLVGGRDFWGQGTQVTVSS VL: EIVLTQSPGTLSLSPGERATLFCRASQSIKKNYVAWYQQNPGQAPRLLIYGASSRATGTPDRFSGSGSGTDFTLTISRLEPEDFAVYYCQQYGSAQYSFGQGTKLEIK	binds
c11395 (antibody, V domains shown) VH: DVQLLQSNPQVTKPGTTMKISCKTSGFTFSDHFIHWVRLTPARGLEWLGLLDPQGGESVTVFSETFKDRVTMTADTSKNIAYMELHTLTSEDTALYFCATTTLENDDGDYVAAFDFWGQGTPVIVSS VL: QSVLTQTPSVSAAPGQKVTISCSGSTSNIGSNFVSWYQHSPGAAPRLIIYNNAERPSGIPARFSGSKSGSSATLAITGLQTEDEAEYFCAAWNNGLKSAHYVFGTGTRLSVL	binds
c10895 (antibody, V domains shown) VH: QEQGIESVRAAVESGASLIISCPTSGFDFARYTMHWVRQAPGKGLEWVAVTSSQGEKKYYSEAVKGRFVITRNNFKRTLYLEMSSLKPEDAGVYYCARSQGYCGTYACYGYYYYMDVWVKGPTVIVSS VL: QSVLTQPPSVSAAPGEKVAISCSGNTTNIEKNYVAWYQHVPETAPKLLIFENHKRPFGIPDRFSGSKSATSATLGISDLQTADEADYYCQTWDTKLHIWVFGGGTKLTVL	binds

Source of measurements: paper PMC8196545
